Here the recorded growth is given for each entry.
System: UACC-62 melanoma
Assay: NCI-60 one-dose screen, 48 h (100 = growth as untreated, 0 = no growth, -100 = all killed)
Settings: 10 µM unless noted
About 83,000 compounds went through this panel and 20% of them were active in at least one assay; those are over-represented in the sample as a whole.
Dear colleague, please return just the value in %, with no unit written.

| compound | target-of-assay | unit-abbrev | growth |
| --- | --- | --- | --- |
| CC1CC(C(C)(C)C)C(=O)C(C(C)(C)C)C1 (stereo not drawn) | UACC-62 melanoma | % | 100 |
| CN1CCN(C(=O)c2c3c(n4ccccc24)C(=O)c2ncccc2C3=O)CC1 | UACC-62 melanoma | % | 39.3 |

Here is the next item to consider.
Param item = CC(=O)OC[C@H]1OC(Sc2sc(C(=O)c3ccc(Br)cc3)c(N)c2-c2nc3ccccc3s2)[C@H](OC(C)=O)[C@@H](OC(C)=O)[C@@H]1OC(C)=O (stereo partly drawn) ; retrieve measured growth.
89.3

* * *

Test system: K-562 leukemia
Experiment: NCI-60 one-dose screen, 48 h (100 = growth as untreated, 0 = no growth, -100 = all killed)
Settings: 10 µM unless noted
This is part of a sample that, as a whole, favours compounds with a hit. Of some 83,000 tested, about 20% had one in any assay. Active and inactive are the calls of the source. Rule for the calls: active = growth percent below 10; inactive = the rest.
Here the recorded growth is given for each entry.

// solved cases for growth follow
| compound | growth |
| --- | --- |
| COC(=O)[C@]12CC[C@@H](C)[C@H](C)[C@@H]1C1=CC[C@@H]3[C@@]4(C)C(C=O)=C[C@@](C)(COC(=O)c5ccco5)C4=CC[C@@]3(C)[C@]1(C)CC2 | 11.1% (inactive) |
| COC(=O)[C@]12CC[C@@H](C)[C@H](C)[C@@H]1C1=CC[C@@H]3[C@@]4(C)C(C=O)=C[C@@](C)(COC(=O)/C=C/c5ccccc5)[C@@H]4[C@H](O)C[C@@]3(C)[C@]1(C)CC2 | 9.93% (active) |
| COC(=O)c1c2c(c(C)[n+]([O-])c1C)C(=O)C(NCc1ccc(F)c(Cl)c1)=CC2=O | 5.87% (active) |
| O=C(COc1ccc(/C=C2\Oc3ccccc3C2=O)cc1)c1ccc(Cl)cc1 | 93.7% (inactive) |
| C[C@@]1(CCC#N)[C@H]2CC[C@@H]3[C@H]4[C@H](C(=O)/C=C/c5cccnc5)CC[C@]4(C#N)CC[C@@]3(C)[C@]2(C)CC[C@H]1C(=O)/C=C/c1cccnc1 | 23.2% (inactive) |
| Cc1cc(=O)[nH]c(N=Nc2c(O)[nH]c3ccccc23)n1 | 116% (inactive) |
| O=C1/C(=C\c2c[nH]c3ccccc23)c2ccccc2N1c1c(Cl)cccc1Cl | -0.66% (active) |
| COc1cc(/C=N/NC(=O)Cn2c(C(C)C)nc3ccccc32)ccc1O | 100% (inactive) |

Param item = "Cc1nn(-c2ccccc2)c2nc3c(c(-c4ccc(Cl)cc4)c12)CNC1(CCSCC1)N3" ; retrieve measured growth.
93.1% (inactive)

Param item = "CSc1n(Cc2ccc3ccccc3c2)c(C)c[n+]1Cc1ccc2ccccc2c1" ; retrieve measured growth.
8.26% (active)

* * *

Here the recorded growth is given for each entry.
Tested on: OVCAR-4 ovarian
Assay: NCI-60 one-dose screen, 48 h (100 = growth as untreated, 0 = no growth, -100 = all killed)
Settings: 10 µM unless noted
Compounds without any hit were thinned out: in the full panel of roughly 83,000, 20% have a hit.
Dear colleague, please return just the value in %, with no unit written.

// solved cases for growth follow
| compound | unit-abbrev | growth |
| --- | --- | --- |
| NS(=O)(=O)c1ccc(-n2nc(C(=O)N/N=C\c3ccc(F)cc3)cc2-c2ccc(Cl)cc2)cc1 | % | 97.8 |
| C[C@@]1(CCC#N)[C@H]2CC[C@@H]3[C@H]4[C@H](C(=O)/C=C/c5cccnc5)CC[C@]4(C#N)CC[C@@]3(C)[C@]2(C)CC[C@H]1C(=O)/C=C/c1cccnc1 | % | 69.1 |
| COc1cc(-c2n/c(=C\c3c(O)[nH]c4ccc(Cl)cc34)cc3c2=Nc2ccccc2-3)cc(OC)c1OC | % | -41.8 |
| N[C@@H](CCCCNCC(=O)O)C(=O)O | % | 101 |
| COc1ccc(-c2csc(C3=C(O)CN(C(C)C)C3=N)n2)cc1OC | % | 117 |
| N#Cc1c(-c2ccccn2)[nH]c(=S)[nH]c1=O | % | 119 |
| Cc1ccc(C2SCC(=O)N2Cc2ccccc2)cc1 (centres undefined) | % | 98.9 |
| Nc1nc(N)c2c(n1)NC(c1ccccc1)C1CCc3ccccc3C1=N2 (centres undefined) | % | 27.3 |

Here is the next item to consider.
Param item = "O=C(N/N=C/c1ccncc1)c1ccc(C(F)(F)F)nc1Nc1cccc(C(F)(F)F)c1" ; retrieve measured growth.
-0.699

* * *

Tested on: SK-MEL-2 melanoma
Experiment: NCI-60 one-dose screen, 48 h (100 = growth as untreated, 0 = no growth, -100 = all killed)
Conditions: 10 µM unless noted
Compounds without any hit were thinned out: in the full panel of roughly 83,000, 20% have a hit.
measurement-type: growth (%)
Dear colleague, please return just the value in %, with no unit written.

| query-smiles | result-value |
| --- | --- |
| CCN(CC)CCn1nc2c3c(cccc3c1=O)-c1ccccc1-2 | 32.8 |
| O=c1[nH]ccc2nc(N3CCC(O)CC3)nc(Nc3ccc(N4CCOCC4)cc3)c12 | 69.3 |
| COCCN(C(=O)c1ccc(F)cc1F)c1c(N)n(Cc2ccccc2)c(=O)[nH]c1=O | 98.7 |

Param item = "N#Cc1c(N)nn(C(=O)c2ccc(NC(=O)c3ccccn3)cc2)c1-c1ccc(Cl)cc1" ; retrieve measured growth.
79.3

Param item = "COc1ccc(-c2cc(-c3cc(OC)ccc3OC)nc(SCC(=O)c3ccccc3)c2C#N)cc1" ; retrieve measured growth.
89.6

Param item = "O=c1c2c3c(sc2n2c(-c4cn(-c5ccccc5)nc4-c4ccc(Cl)cc4)nnc2n1Cc1ccccc1)CCCC3" ; retrieve measured growth.
97.8

* * *

Test system: T-47D breast
Test: NCI-60 one-dose screen, 48 h
Settings: 10 µM unless noted
The panel holds about 83,000 compounds, 20% with a hit somewhere; the sample as a whole holds those more often. Activity calls are given as the source filed them. How the source made its calls: active means growth percent below 10; inactive means the rest.
Use one of these outcomes when replying: T for active, F for inactive

The following molecules have reported results that may help.
| molecule | class-assignment |
| --- | --- |
| CC/C=C\C[C@H](O)C/C=C1/C(=O)C=C[C@@H]1C/C=C\CCCC(=O)OC | T |
| O=C(COc1ccc(/C=C2\Oc3ccccc3C2=O)cc1)Nc1nc2ccccc2s1 | F |
| C[n+]1cc2c3c(ccc2c2ccc4cc5c(cc4c21)OCO5)OCO3 | T |
| O=C(Nc1cccc(Oc2nnc(Cl)c3ccccc23)c1)Nc1ccc(Cl)c(C(F)(F)F)c1 | T |
| COc1cc2nc(Cl)nc(Nc3ccc(S(=O)(=O)Nc4nccs4)cc3)c2cc1OC | F |
| O=C(/C=C/c1ccc(Cl)nc1)c1ccc(Cl)cc1Cl | F |

Outcome? COc1ccc(CNC(=O)C(O)C(Cc2ccccc2)NC(=O)c2[nH]c3ccccc3c(=O)c2C)cc1OC (stereo not drawn)
F

* * *

Tested on: UACC-257 melanoma
Test: NCI-60 one-dose screen, 48 h
Settings: 10 µM unless noted
The panel holds about 83,000 compounds, 20% with a hit somewhere; the sample as a whole holds those more often. Activity calls are given as the source filed them. The calls were made as follows: active = growth percent below 10; inactive = the rest.
Use one of these outcomes when replying: active, inactive

| query-smiles | class-assignment |
| --- | --- |
| COc1ccc(-c2nc(SCCC(C)C)nc(N/N=C\c3cccc([N+](=O)[O-])c3)c2C#N)cc1 | inactive |
| COc1ccc(-c2c(N)n[nH]c2-c2ccc(Cl)cc2O)cc1OC | inactive |
| Cc1ccc(/C=C/c2c(C(=O)/C=C/c3ccc(C(F)(F)F)cc3)c(C)nc3ccccc23)cc1 | active |

# input for lookup
Outcome? "Cc1cccc(-c2nc(N(C)c3ccc4ncsc4c3)c3ccccc3n2)n1"
inactive

* * *

System: MOLT-4 leukemia
Experiment: NCI-60 one-dose screen, 48 h (100 = growth as untreated, 0 = no growth, -100 = all killed)
Conditions: 10 µM unless noted
This is part of a sample that, as a whole, favours compounds with a hit. Of some 83,000 tested, about 20% had one in any assay. Calls of active or inactive are those of the source. Rule for the calls: active = growth percent below 10; inactive = the rest.
measurement-type: growth

| molecule | target-of-assay | measurement-type | result-value |
| --- | --- | --- | --- |
| CN(C)CC1=NC2SC=C(c3ccccc3)C2C(=O)N1CC#N (stereo not drawn) | MOLT-4 leukemia | growth | 82% (inactive) |
| COC(=O)c1ccc(C2Nc3ccc(S(=O)(=O)Nc4ccc(C)c(C)c4)cc3C3OCCC23)cc1 (stereo not drawn) | MOLT-4 leukemia | growth | 60.6% (inactive) |

Param item = "COc1ccc2c(c1)C(=O)/C(=C/c1cccc(OCC(=O)Nc3nc(C)c(C)s3)c1)O2" ; retrieve measured growth.
-65.4% (active)
